What melting point was measured for each of the following?

Look over these answered cases.
{"compound": "N#Cc1ccccc1-c1ccc(CCl)cn1", "melting point": "97 to 98 °C"}
{"compound": "N#Cc1ccc(O)c(I)c1", "melting point": "144 to 146 °C"}
{"compound": "CCc1n[nH]c(=O)n1N", "melting point": "171 °C"}
{"compound": "Nc1c(F)c(N2CC[C@@H](C3(NCCO)CC3)C2)c(F)c2c1c(=O)c(C(=O)O)cn2[C@@H]1C[C@@H]1F", "melting point": "198 to 200 °C"}
{"compound": "O=C(C1=Cc2ccccc2C1)C12CC3CC(CC(C3)C1)C2", "melting point": "124 to 125 °C"}
{"compound": "Cc1cccc2ncc(C(=O)Nc3ccccc3)c(=O)n12", "melting point": "186 to 188 °C"}

Give melting point for all compounds that follow.
1. CC(C)=CCn1ccnc1[N+](=O)[O-]
2. CCC(CC)Nc1cc(C)nc(Oc2c(C)cc(Cl)cc2C)c1NC(C)=O
3. CCc1noc(-c2cc3c(cn2)[nH]c2ccc(S(=O)(=O)N(C)C)cc23)n1
4. CCCOc1ccccc1-c1nc2nc(NCCCO)ncc2c(=O)[nH]1
5. CCN1C(=O)CN(c2ccccc2)C1=O
6. CC(C#N)c1ccc(C(=O)c2ccc(Cl)cc2)n1C (configuration not stated)
7. CCOC(=O)c1ccc(NC(=O)c2c(OC)cccc2OC)cc1
8. CCOC(Nc1ccccc1)(OCC)c1cc(C(=O)c2ccc(Cl)cc2)nc(C)c1Cl

Solution:
1: 48 to 49 °C; 2: 161 to 164 °C; 3: 266 to 268 °C; 4: 185 to 186 °C; 5: 142 °C; 6: 145 to 148 °C; 7: 183 to 185 °C; 8: 156 to 157 °C

Parameters: items (list). Returns: melting point for each item.
1. N#Cc1cc(N2C(=O)CC(C(F)(F)F)CC2=O)c(F)cc1Cl
2. CCOC(=O)c1cn(C2CCCCC2)nc1O
3. CCN(CC)CC1CCCCN1CC(=O)N1c2ccc(C)cc2C(=O)Nc2cccnc21 (configuration not stated)
4. CCc1cccc2c(/C=C(\C)C(=O)O)cc(OC)c(OC(C)=O)c12
5. O=C(Nc1cnc2scnc2c1)c1cc2cc(F)ccc2n1Cc1cccc(F)c1
6. COc1cc2c(CCN)c[nH]c2cc1F
7. Cc1c(-c2ccccc2)c2cc(Cl)ccc2n1CC(N)=O
8. CCOC(=O)N1CCC(Nc2nccc(Oc3ccc(NC(=O)c4cc(F)cc(N5CCOCC5)c4)c4ccccc34)n2)CC1

Solution:
["210 to 212 °C", "91 to 92 °C", "173 to 174 °C", "148 to 150 °C", "250 to 251 °C", "114 to 117 °C", "223 to 224 °C", "122 to 124 °C"]

Hey, just so you know, these numbers are from a melting point compilation (Tetko et al.; mined from patent text by program, amines drawn as free bases though some values may be those of a salt).
